Test system: S. aureus Smith
PROTOCOL_NOTES: Antibacterial activity (MIC), S. aureus
Assay type: cell-based
MEASUREMENT_CONDITIONS: Staphylococcus aureus, Table 2; S. aureus Smith; read-out: Antimicrobial MIC [μM] S. aureus
MEASURE_NAME: MIC

COMPOUND | TEST_TARGET | MEASURE_NAME | RECORDED_MEASUREMENT
CCOC(=O)CCNc1c(F)c(N)c2c(=O)ccn(C3CC3)c2c1OC [Example 125] | S. aureus Smith | MIC | > 50 µM
CC1(C)Cn2cc(C(=O)O)c(=O)c3c(N)c(F)c(NCCCn4ccnc4)c(c32)O1 [compound 58] | S. aureus Smith | MIC | > 50 µM
Cc1c(C(=O)O)c(=O)c2c(N)c(F)c(NCCNc3ccccn3)c(OC(C)C)c2n1C1CC1 [Example 127] | S. aureus Smith | MIC | 0.5 to 10 µM
CC1COc2c(NCCc3ccncc3)c(F)c(N)c3c(=O)c(C(=O)O)cn1c23 (centres unmarked) [compound 3] | S. aureus Smith | MIC | 0.5 to 10 µM
COc1c(NCCCc2ccccc2)c(F)c(N)c2c(=O)ccn(C3CC3)c12 [compound 1] | S. aureus Smith | MIC | 10 to 50 µM
Nc1c(F)c(NCCNc2ccccn2)cc2c1c(=O)c(C(=O)O)cn2CCc1ccccc1 [Example 119] | S. aureus Smith | MIC | 10 to 50 µM
CC(C)OCCCNc1c(F)c(N)c2c(=O)c(C(=O)O)cn3c2c1OCC3(C)C [compound 40] | S. aureus Smith | MIC | > 50 µM
COc1c(NCCNc2ccccn2)c(F)c(N)c2c(=O)c(C#N)cn(C3CC3)c12 [Example 142] | S. aureus Smith | MIC | > 50 µM

###

Known MIC of a selection of compounds
System: E. coli, ATCC8739
PROTOCOL_NOTES: Antibacterial activity (MIC), E. coli
Type: cell-based
MEASUREMENT_CONDITIONS: Escherichia coli, ATCC8739, Table 1; E. coli ATCC8739; read-out: Antibacterial MIC (μM) E.Coli

ITEM_SMILES | MIC
Nc1c(F)c(NCCCc2ccccc2)c(F)c2c1c(=O)ccn2C1CCCC1 | 10 to 50 µM
Nc1c(F)c(NCCCc2ccccc2)c(F)c2c1c(=O)c(C(=O)O)cn2C1CC1 | 10 to 50 µM
Nc1c(F)c(NCCCc2ccccc2)c(F)c2c1c(=O)c(C(=O)O)cn2C1CCCC1 | 10 to 50 µM
Nc1c(F)c(NCCNc2ccccn2)c(F)c2c1c(=O)ccn2C1CC1 | > 50 µM
Nc1c(F)c(NCCCn2ccnc2)c(F)c2c1c(=O)ccn2CCc1ccccc1 | > 50 µM
Nc1c(F)c(NCCNc2ccccn2)c(F)c2c1c(=O)ccn2CCc1ccccc1 | 10 to 50 µM
Nc1cc(NCCNc2cccc3ccccc23)cc2c1c(=O)ccn2C1CC1 | 10 to 50 µM
Nc1c(F)c(NCCCn2ccnc2)c(F)c2c1c(=O)ccn2C1CCCC1 | > 50 µM
Nc1c(F)c(NCCCn2ccnc2)c(F)c2c1c(=O)c(C(=O)O)cn2CCc1ccccc1 | > 50 µM

###

Known IC50 of a selection of compounds
TEST_TARGET: recombinant full-length human GSK3β (Homo sapiens)
Construct: recombinant full-length human GSK3β (Upstate); purchased Upstate
Sequence (P49841 whole entry): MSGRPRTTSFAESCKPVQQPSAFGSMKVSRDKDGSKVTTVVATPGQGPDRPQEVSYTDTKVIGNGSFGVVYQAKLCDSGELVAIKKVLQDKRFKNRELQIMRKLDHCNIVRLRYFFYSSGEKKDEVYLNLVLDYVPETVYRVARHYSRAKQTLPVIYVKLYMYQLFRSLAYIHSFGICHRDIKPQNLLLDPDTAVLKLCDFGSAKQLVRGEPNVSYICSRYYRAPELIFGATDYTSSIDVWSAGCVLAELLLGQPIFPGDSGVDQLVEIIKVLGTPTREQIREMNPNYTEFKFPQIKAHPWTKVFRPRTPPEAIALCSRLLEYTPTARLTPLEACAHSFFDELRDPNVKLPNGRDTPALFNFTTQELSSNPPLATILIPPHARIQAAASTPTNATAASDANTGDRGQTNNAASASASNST
PROTOCOL_NOTES: Luciferase-coupled cell-free GSK3β kinase assay
Assay type: biochemical
MEASUREMENT_CONDITIONS: Table 2

COMPOUND | TEST_TARGET | IC50
C[C@H]1COc2c(NCCCc3ccccn3)c(F)c(N)c3c(=O)c(C#N)cn1c23 | recombinant full-length human GSK3β (Homo sapiens) | < 100 nM
Cc1n[nH]c(SCCNc2c(F)c(N)c3c(=O)c(C(=O)O)cn4c3c2OC[C@@H]4C)n1 | recombinant full-length human GSK3β (Homo sapiens) | < 100 nM
CC1(C)COc2c(NCCCc3ccccc3)c(F)c(N)c3c(=O)c(C(=O)O)cn(c23)C1 | recombinant full-length human GSK3β (Homo sapiens) | < 100 nM
C[C@H]1COc2c(NCCNC3=NS(=O)(=O)c4ccccc43)c(F)c(N)c3c(=O)c(C(=O)O)cn1c23 | recombinant full-length human GSK3β (Homo sapiens) | < 100 nM
CC(C)OCCCNc1c(F)c(N)c2c(=O)c(C(=O)O)cn3c2c1OCC3C (centres unmarked) | recombinant full-length human GSK3β (Homo sapiens) | 100 to 500 nM
COc1c(NCCNc2ccccn2)c(Cl)c(N)c2c(=O)c(C(=O)O)cn(C3CC3)c12 | recombinant full-length human GSK3β (Homo sapiens) | < 100 nM
C[C@H]1COc2c(NCCCC3CCCCC3)c(F)c(N)c3c(=O)c(C(=O)O)cn1c23 | recombinant full-length human GSK3β (Homo sapiens) | < 100 nM
CCOc1ccc(CCCNc2c(F)c(N)c3c(=O)c(C(=O)O)cn4c3c2OC[C@@H]4C)cc1OCC | recombinant full-length human GSK3β (Homo sapiens) | < 100 nM
Nc1c(F)c(NCCNc2ccccn2)c2c3c1c(=O)c(C(=O)O)cn3[C@@H](c1ccccc1)CO2 | recombinant full-length human GSK3β (Homo sapiens) | 100 to 500 nM
CC1(C)COc2c(NCCCc3ccccc3)c(F)c(N)c3c(=O)c(C(=O)O)cn1c23 | recombinant full-length human GSK3β (Homo sapiens) | < 100 nM
CC1COc2c(NCCNc3cccc(C(F)(F)F)n3)c(F)c(N)c3c(=O)c(C(=O)O)cn1c23 (centres unmarked) | recombinant full-length human GSK3β (Homo sapiens) | < 100 nM
C[C@H]1COc2c(NCCCc3ccccn3)c(F)c(N)c3c(=O)c(C(=O)O)cn1c23 | recombinant full-length human GSK3β (Homo sapiens) | < 100 nM
CC1COc2c(NCCc3ccncc3)c(F)c(N)c3c(=O)c(C(=O)O)cn1c23 (centres unmarked) | recombinant full-length human GSK3β (Homo sapiens) | 100 to 500 nM
C[C@H]1COc2c(NCCc3ccncc3)c(F)c(N)c3c(=O)c(C(=O)O)cn1c23 | recombinant full-length human GSK3β (Homo sapiens) | 100 to 500 nM
Nc1c(F)c(NCCNc2ccccn2)cc2c1c(=O)c(C(=O)O)cn2C1CCOCC1 | recombinant full-length human GSK3β (Homo sapiens) | < 100 nM
COc1c(NCCNc2ccc(C(=O)O)cn2)c(F)c(N)c2c(=O)ccn(C3CC3)c12 | recombinant full-length human GSK3β (Homo sapiens) | < 100 nM
CC1(C)CCOc2c(NCCNc3ccccn3)c(F)c(N)c3c(=O)c(C(=O)O)cn1c23 | recombinant full-length human GSK3β (Homo sapiens) | 100 to 500 nM
COc1c(NCCCn2ccnc2)c(F)c(N)c2c(=O)ccn(C3CC3)c12 | recombinant full-length human GSK3β (Homo sapiens) | 100 to 500 nM
C[C@H]1COc2c(NCCOc3ccc(C(=O)O)cc3)c(F)c(N)c3c(=O)c(C(=O)O)cn1c23 | recombinant full-length human GSK3β (Homo sapiens) | < 100 nM
C[C@H]1COc2c(NCCCN3CCCc4ccccc43)c(F)c(N)c3c(=O)c(C(=O)O)cn1c23 | recombinant full-length human GSK3β (Homo sapiens) | < 100 nM
CC(C)C[C@H]1COc2c(NCCNc3ccccn3)c(F)c(N)c3c(=O)c(C(=O)O)cn1c23 | recombinant full-length human GSK3β (Homo sapiens) | < 100 nM
CC1(C)COc2c(NCCNc3ccccn3)c(F)c(N)c3c(=O)c(C(=O)O)cn(c23)C1 | recombinant full-length human GSK3β (Homo sapiens) | 100 to 500 nM
C[C@H]1COc2c(NCCCN3CCc4ccccc43)c(F)c(N)c3c(=O)c(C(=O)O)cn1c23 | recombinant full-length human GSK3β (Homo sapiens) | 100 to 500 nM
C[C@@H]1COc2c(NCCCn3cnc4ccccc43)c(F)c(N)c3c(=O)c(C(=O)O)cn1c23 | recombinant full-length human GSK3β (Homo sapiens) | 100 to 500 nM
CC1(C)COc2c(NCCCn3ccnc3)c(F)c(N)c3c(=O)c(C(=O)O)cn(c23)C1 | recombinant full-length human GSK3β (Homo sapiens) | < 100 nM
CC(C)[C@H]1COc2c(NCCCn3ccnc3)c(F)c(N)c3c(=O)c(C(=O)O)cn1c23 | recombinant full-length human GSK3β (Homo sapiens) | < 100 nM
COc1c(NCCNc2ccccn2)c(F)c(N)c2c(=O)c(C#N)cn(C3CC3)c12 | recombinant full-length human GSK3β (Homo sapiens) | < 100 nM
Cc1nn(C)c(C)c1CCCNc1c(F)c(N)c2c(=O)c(C(=O)O)cn3c2c1OC[C@@H]3C | recombinant full-length human GSK3β (Homo sapiens) | < 100 nM
C[C@H]1COc2c(NCCCc3nc4ccccc4[nH]3)c(F)c(N)c3c(=O)c(C(=O)O)cn1c23 | recombinant full-length human GSK3β (Homo sapiens) | < 100 nM
Cc1ccc(OCCNc2c(F)c(N)c3c(=O)c(C(=O)O)cn4c3c2OC[C@@H]4C)cc1 | recombinant full-length human GSK3β (Homo sapiens) | 100 to 500 nM
CC1COc2c(NCCNc3cc(F)cc(F)n3)c(F)c(N)c3c(=O)c(C(=O)O)cn1c23 (centres unmarked) | recombinant full-length human GSK3β (Homo sapiens) | < 100 nM
Cc1cc(NCCNc2c(F)c(N)c3c(=O)c(C(=O)O)cn4c3c2OC[C@@H]4C)c2ccccc2n1 | recombinant full-length human GSK3β (Homo sapiens) | < 100 nM
